# Species: Homo sapiens
# Assay remarks: Selectivity ratio of IC50 for human recombinant MAO-A to IC50 for human recombinant MAO-B
Observed property: Ratio IC50

Please review the following examples before continuing.
Smiles repr: C#CCCCCOc1ccc2c(C)cc(=O)oc2c1
Ratio IC50: 78
--
Smiles repr: COC(=O)c1cc2ccc(OCc3cccc(F)c3)cc2oc1=O
Ratio IC50: 130
--
Smiles repr: C#CCOc1ccc2cc(C(=O)OC)c(=O)oc2c1
Ratio IC50: 1
--
Smiles repr: C#CCCCCOc1ccc2cc(NC(C)=O)c(=O)oc2c1
Ratio IC50: 2
--
Smiles repr: C#CCCCOc1ccc2c(C)cc(=O)oc2c1
Ratio IC50: 30

[a] C#CCCCOc1ccc2ccc(=O)oc2c1
[b] C#CCNCCOc1ccc2ccc(=O)oc2c1
q: Returns: the argument ( a or b ) having the larger Ratio IC50. Pick one; state its label.
a: a
(a: 38, b: 12)

---

The following molecules are listed with their measured pIC50 values.
# Target entity: Amine oxidase [flavin-containing] B (Homo sapiens, UniProt P27338)
# Sequence (P27338 whole entry): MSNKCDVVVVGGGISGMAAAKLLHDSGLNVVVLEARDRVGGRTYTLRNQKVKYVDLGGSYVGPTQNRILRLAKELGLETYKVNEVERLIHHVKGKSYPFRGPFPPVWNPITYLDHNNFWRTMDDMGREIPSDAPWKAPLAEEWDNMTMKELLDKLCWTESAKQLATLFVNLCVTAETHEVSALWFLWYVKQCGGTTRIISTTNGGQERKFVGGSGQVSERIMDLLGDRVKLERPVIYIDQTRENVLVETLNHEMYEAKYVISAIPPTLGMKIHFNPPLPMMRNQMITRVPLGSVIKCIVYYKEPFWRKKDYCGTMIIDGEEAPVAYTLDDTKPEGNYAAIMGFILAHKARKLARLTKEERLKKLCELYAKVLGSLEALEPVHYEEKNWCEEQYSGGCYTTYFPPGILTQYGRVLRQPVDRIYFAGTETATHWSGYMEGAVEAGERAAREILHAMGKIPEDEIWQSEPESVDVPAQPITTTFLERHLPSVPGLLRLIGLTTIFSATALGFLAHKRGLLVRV
# Assay remarks: Inhibition of human recombinant MAO-B expressed in baculovirus infected insect cells assessed as hydrogen peroxide production using p-tyramine as substrate incubated for 30 mins prior to substrate addition measured for 45 mins by Amplex Red monoamine oxidase assay
pIC50: −log10 of the molar value.

Smiles repr: C#CCCCOc1ccc2cc(C(=O)Nc3ccc(F)cc3)c(=O)oc2c1
Experimental result: < 5.00

q: Can you look up the measured pIC50 of `C#CCCCOc1ccc2cc(C(=O)O)c(=O)oc2c1` for me?
a: < 5.00

q: Can you look up the measured pIC50 of `C#CCCCOc1ccc2oc(=O)c(C(=O)OC)cc2c1` for me?
a: 5.84

q: Can you look up the measured pIC50 of `C#CCCCCOc1ccc2oc(=O)c(C(=O)c3ccc(OC)cc3)cc2c1` for me?
a: < 5.00

---

# Species on record: Homo sapiens
# Assay remarks: Selectivity ratio of IC50 for human recombinant MAO-A to IC50 for human recombinant MAO-B
The following molecules are listed with their measured Ratio IC50 values.

Please review the following examples before continuing.
Smiles repr: COC(=O)c1cc2cc(OC/C=C(\C)CCC=C(C)C)ccc2oc1=O
Ratio IC50: > 31
--
Smiles repr: C#CCCCCOc1ccc2c(c1)NC(=O)CC2
Ratio IC50: > 190

q: Can you look up the measured Ratio IC50 of `C#CCCCCOc1ccc2oc(=O)c(NC(C)=O)cc2c1` for me?
a: > 400

q: Can you look up the measured Ratio IC50 of `C#CCCCCOc1ccc2oc(=O)c(C(=O)OC)cc2c1` for me?
a: > 81

q: Can you look up the measured Ratio IC50 of `COC(=O)c1cc2cc(OCc3cccc(Cl)c3)ccc2oc1=O` for me?
a: > 320

q: Can you look up the measured Ratio IC50 of `C#CCCCOc1ccc2oc(=O)c(C(=O)OC)cc2c1` for me?
a: > 7

q: Can you look up the measured Ratio IC50 of `COC(=O)c1cc2cc(OCCc3ccc(Cl)cc3)ccc2oc1=O` for me?
a: > 83

q: Can you look up the measured Ratio IC50 of `C#CCCCOc1ccc2cc(C(=O)c3ccc(OC)cc3)c(=O)oc2c1` for me?
a: > 19

q: Can you look up the measured Ratio IC50 of `C#CCCCCOc1ccc2cc(-c3ccc(OC)cc3)c(=O)oc2c1` for me?
a: > 3400

q: Can you look up the measured Ratio IC50 of `C#CCCCCOc1ccc2cc(C(=O)c3ccc(OC)cc3)c(=O)oc2c1` for me?
a: > 150
